# ASSAY_NOTES: Aqueous solubility
# Type: physicochemical
# label = rule met if solubility >= 30 µM else rule not met

• Nc1nc2c(Cl)c(Cl)ccc2s1 [Compound 4b] = rule met
• O=C(Nc1ccc([N+](=O)[O-])cc1Cl)c1cc(Cl)ccc1O [Compound 1a, Niclosamide, reference compound] = rule not met
• CC(C)CNC(=O)Nc1nc(-c2ccccn2)cs1 [Compound 3l] = rule not met
• O=C(Nc1nc(-c2ccc(F)cc2F)cs1)Nc1ccc(F)cc1F [Compound 3f] = rule not met
• c1ccc(-c2cc(N3CCCCC3)c3ccccc3n2)cc1 [Compound 7b] = rule not met
• N#Cc1ccc(NC(=O)c2cc(Cl)ccc2O)cc1 [Compound 1g] = rule not met
• CS(=O)(=O)Nc1ccccc1Nc1nc(NC2CCOCC2)ncc1Cl [Compound 2f] = rule not met
• NCCN(C(=O)c1ccccc1Cl)c1ccc(Cl)cc1 [Compound 1l] = rule met
• Cc1ccc2sc(NC(=O)C3CC3)nc2c1C [Compound 4m] = rule not met
• O=C(Nc1ccc(OCc2ccccc2)cc1)c1ccccc1Cl [Compound 1k] = rule not met
• COc1ccc(Nc2ccnc3cc(Cl)ccc23)cc1 [Compound 5g] = rule not met
• c1ccc2c(N3CCCCC3)cc(N3CCOCC3)nc2c1 [Compound 7d] = rule met
• N#Cc1ccc(NC(=O)c2cc(Cl)ccc2O)cc1F [Compound 1d] = rule met
• O=C(Nc1nc(-c2ccccn2)cs1)c1ccccc1Cl [Compound 3c] = rule met
• O=C(Nc1nc2cc(Cl)ccc2s1)C1CC1 [Compound 4j] = rule not met
• O=C(Nc1nc2c(F)c(F)ccc2s1)C1CC1 [Compound 4k] = rule not met
• O=C(Nc1nc2cc(F)c(F)cc2s1)C1CC1 [Compound 4l] = rule not met
• CCN(CC)C(=O)c1cc(Nc2ccnc3cc(Cl)ccc23)ccc1O [Compound 5d] = rule not met
• OC1CCC(Nc2ccnc3cc(Cl)ccc23)CC1 (centres unmarked) [Compound 5f] = rule met

---

# ASSAY_NOTES: Aqueous solubility
# Type: physicochemical
RECORDED_METRIC: solubility (µM)

- CC(C)CC(=O)Nc1nc2c(Cl)c(Cl)ccc2s1: 4.5
- Oc1ccc(Nc2ccnc3cc(Cl)ccc23)nc1: 6.7
- CNC(=O)c1ccccc1Nc1nc(Nc2ccc(N3CCOCC3)cc2OC)ncc1Cl: 2.2
- CN1CCN(c2cc(N3CCCCC3)c3ccccc3n2)CC1: 210
- CS(=O)(=O)Nc1cc(F)ccc1Nc1nc(Nc2ccc(C(=O)N3CCOCC3)cc2)ncc1Cl: 2.3

---

// EC50 lookup, one value per entry
# Tested on: HepG2 cells
# ASSAY_NOTES: HepG2 cytotoxicity assay (resazurin, 72 h)
# Type: cell-based, human
# SETTINGS: Homo sapiens, HepG2, 72 h; read-out: HepG2 pEC50 (converted)
RECORDED_METRIC: EC50 (µM)

• CCN(CC)Cc1cc(Nc2ccnc3cc(Cl)ccc23)ccc1O [Compound 5a, reference compound] = 20
• O=C(Nc1nc(C2CC2)cs1)Nc1ccc(F)cc1F = 63.1
• Oc1ccc(Nc2ccnc3cc(Cl)ccc23)cc1 = 79.4

---

# System: HepG2 cells
# ASSAY_NOTES: HepG2 cytotoxicity assay (resazurin, 72 h)
# Format: cell-based, human
# SETTINGS: Homo sapiens, HepG2, 72 h; read-out: HepG2 pEC50 (converted)
RECORDED_METRIC: EC50

• CN1CC2(CCN(Cc3ccc(F)cc3)CC2)OCC1=O = > 100 µM
• CC(=O)Nc1nc2c(Cl)c(Cl)ccc2s1 = 50.1 µM
• N#Cc1ccc(NC(=O)c2cc(Cl)ccc2O)cc1F = 6.31 µM
• Cc1cc(NC(=O)c2ccccc2)n(-c2ccccc2)n1 = > 100 µM
• O=C(Nc1ccc(OCc2ccccc2)cc1)c1ccccc1Cl = > 100 µM
